All values here come from patent US20100105682A1.

Collected pIC50 values appear next to each entry.
SYSTEM_TESTED: rat brain N-type calcium channel subunits (α1B+α2δ+β1b cDNA subunits) (Rattus norvegicus)
Construct: expressed in transfected cells; host or cells: HEK 293 (human embryonic kidney), stably transfected; alternatively transiently transfected
Sequence (Q02294 whole entry): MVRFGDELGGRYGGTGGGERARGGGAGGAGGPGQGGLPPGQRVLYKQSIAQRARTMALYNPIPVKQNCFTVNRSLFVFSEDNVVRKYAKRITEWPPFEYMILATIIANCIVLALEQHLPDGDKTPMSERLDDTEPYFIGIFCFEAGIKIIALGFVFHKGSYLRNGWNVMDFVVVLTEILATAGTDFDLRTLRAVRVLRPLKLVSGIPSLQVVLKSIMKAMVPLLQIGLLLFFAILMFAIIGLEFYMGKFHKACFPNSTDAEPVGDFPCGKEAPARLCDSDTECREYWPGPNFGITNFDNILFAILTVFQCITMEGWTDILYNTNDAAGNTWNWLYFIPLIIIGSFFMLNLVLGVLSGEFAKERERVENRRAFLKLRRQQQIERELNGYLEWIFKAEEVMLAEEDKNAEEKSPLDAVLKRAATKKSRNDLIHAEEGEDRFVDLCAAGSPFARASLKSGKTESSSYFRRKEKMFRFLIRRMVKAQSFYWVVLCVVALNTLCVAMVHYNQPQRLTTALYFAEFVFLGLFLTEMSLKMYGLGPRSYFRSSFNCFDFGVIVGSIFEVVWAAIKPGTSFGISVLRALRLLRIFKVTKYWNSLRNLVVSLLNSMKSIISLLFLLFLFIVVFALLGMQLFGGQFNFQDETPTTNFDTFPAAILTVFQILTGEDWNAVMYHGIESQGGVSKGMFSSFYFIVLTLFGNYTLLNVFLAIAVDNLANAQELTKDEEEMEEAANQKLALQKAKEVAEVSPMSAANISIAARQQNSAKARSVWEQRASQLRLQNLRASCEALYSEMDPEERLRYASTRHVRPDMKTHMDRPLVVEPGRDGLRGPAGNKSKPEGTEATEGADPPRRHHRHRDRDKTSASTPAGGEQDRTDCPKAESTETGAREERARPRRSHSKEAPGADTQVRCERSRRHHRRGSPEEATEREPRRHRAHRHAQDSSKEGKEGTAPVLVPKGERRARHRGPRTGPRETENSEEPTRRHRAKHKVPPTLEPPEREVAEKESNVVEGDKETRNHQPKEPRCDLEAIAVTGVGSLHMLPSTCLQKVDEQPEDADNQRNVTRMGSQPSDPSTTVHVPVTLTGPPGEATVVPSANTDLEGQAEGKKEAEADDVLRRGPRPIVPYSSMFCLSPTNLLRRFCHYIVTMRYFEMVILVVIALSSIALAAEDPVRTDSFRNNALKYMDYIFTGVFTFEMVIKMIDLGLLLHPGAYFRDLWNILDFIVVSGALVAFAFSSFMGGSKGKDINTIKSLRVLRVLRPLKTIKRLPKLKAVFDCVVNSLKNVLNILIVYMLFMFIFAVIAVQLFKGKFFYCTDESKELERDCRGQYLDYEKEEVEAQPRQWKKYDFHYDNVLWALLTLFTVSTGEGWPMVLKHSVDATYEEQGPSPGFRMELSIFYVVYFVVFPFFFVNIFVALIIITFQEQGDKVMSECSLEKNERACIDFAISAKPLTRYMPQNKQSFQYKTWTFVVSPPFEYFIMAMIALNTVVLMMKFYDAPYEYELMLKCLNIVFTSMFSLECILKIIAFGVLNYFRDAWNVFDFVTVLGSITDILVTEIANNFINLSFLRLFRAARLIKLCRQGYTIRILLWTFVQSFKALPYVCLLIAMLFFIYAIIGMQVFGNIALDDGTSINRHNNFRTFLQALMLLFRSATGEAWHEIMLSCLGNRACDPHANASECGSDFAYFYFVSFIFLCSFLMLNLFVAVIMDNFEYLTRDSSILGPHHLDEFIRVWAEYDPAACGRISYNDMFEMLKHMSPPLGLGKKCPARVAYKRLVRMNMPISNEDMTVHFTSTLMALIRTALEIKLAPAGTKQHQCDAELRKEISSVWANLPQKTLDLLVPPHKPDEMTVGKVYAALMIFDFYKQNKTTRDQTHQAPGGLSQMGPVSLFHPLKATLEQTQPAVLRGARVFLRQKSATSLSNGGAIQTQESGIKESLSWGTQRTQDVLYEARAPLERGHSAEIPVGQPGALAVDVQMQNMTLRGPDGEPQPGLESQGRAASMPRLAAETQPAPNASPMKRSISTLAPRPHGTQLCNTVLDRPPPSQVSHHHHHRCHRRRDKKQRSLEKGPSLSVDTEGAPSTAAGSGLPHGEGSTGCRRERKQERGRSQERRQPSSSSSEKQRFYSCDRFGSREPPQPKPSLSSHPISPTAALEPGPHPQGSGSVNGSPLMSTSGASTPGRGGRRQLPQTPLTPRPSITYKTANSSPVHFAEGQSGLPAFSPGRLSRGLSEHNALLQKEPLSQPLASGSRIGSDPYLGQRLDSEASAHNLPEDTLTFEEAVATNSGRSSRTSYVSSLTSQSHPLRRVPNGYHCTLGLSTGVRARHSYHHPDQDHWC
Sequence (P54290 25-944 partner limits assumed): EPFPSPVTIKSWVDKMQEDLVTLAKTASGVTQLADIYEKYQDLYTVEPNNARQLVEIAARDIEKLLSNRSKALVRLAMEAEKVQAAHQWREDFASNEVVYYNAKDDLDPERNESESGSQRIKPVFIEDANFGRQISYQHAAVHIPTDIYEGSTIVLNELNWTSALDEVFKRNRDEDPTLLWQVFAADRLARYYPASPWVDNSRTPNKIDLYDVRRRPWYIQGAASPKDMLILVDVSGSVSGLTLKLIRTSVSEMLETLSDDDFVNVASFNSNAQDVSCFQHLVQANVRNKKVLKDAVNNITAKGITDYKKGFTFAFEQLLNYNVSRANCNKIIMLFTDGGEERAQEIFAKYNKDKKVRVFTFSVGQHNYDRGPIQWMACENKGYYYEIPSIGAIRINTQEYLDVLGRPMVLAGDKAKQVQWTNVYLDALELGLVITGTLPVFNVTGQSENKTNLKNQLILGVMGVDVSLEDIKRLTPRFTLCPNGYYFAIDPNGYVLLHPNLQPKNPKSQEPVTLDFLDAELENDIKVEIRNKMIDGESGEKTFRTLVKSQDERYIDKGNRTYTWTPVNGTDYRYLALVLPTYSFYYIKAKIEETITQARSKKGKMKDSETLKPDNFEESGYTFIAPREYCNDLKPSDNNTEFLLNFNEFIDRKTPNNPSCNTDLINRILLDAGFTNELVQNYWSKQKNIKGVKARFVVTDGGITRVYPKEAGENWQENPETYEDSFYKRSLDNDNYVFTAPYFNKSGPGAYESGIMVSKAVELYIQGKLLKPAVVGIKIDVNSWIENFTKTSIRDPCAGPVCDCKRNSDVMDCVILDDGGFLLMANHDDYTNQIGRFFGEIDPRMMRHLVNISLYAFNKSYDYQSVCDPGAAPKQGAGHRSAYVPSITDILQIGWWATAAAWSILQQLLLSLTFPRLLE
Sequence (P54290 945-1091 partner limits assumed): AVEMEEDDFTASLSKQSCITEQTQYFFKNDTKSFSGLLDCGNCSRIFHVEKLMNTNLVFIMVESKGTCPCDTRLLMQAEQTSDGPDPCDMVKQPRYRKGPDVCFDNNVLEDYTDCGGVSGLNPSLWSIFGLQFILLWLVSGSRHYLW
Sequence (P54283 whole entry partner): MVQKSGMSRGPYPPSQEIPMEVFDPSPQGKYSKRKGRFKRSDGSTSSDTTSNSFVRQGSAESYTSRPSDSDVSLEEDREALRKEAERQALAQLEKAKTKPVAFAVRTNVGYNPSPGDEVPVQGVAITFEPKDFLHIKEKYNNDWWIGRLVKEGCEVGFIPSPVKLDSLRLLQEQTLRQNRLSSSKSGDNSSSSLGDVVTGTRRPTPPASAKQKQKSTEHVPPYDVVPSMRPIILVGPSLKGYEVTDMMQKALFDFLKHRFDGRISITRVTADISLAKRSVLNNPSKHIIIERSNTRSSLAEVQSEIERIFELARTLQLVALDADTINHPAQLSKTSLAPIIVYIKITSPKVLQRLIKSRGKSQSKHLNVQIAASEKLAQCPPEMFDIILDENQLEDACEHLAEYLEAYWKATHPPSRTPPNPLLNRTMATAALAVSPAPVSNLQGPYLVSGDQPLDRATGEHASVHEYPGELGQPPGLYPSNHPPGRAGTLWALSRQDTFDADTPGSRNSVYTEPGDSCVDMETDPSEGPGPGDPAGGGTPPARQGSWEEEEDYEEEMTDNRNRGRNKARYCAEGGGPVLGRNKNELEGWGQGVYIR
MEASUREMENT_DESCRIPTION: N-type calcium channel block, whole cell patch clamp in HEK 293 cells
Assay type: cell-based
EXPERIMENTAL_CONTEXT: low frequency stimulation 0.067 Hz (tonic block), holding potential −80 mV to +10 mV, read-out: IC50 @ 0.067 Hz
Please keep in mind that pIC50 is minus log10 of the molar concentration; only the number is needed.

Would you please look over these solved cases?
- MOLECULE: "O=C(C1CC1C(=O)N1CCN(C(c2ccccc2)c2ccccc2)CC1)N1CCN(C(c2ccccc2)c2ccccc2)CC1 (stereo not shown) [Compound 1]"
  pIC50: 6.80
- MOLECULE: "CC1CCC(CN2CCN(C(=O)C3CC3C(=O)N3CCN(C(c4ccccc4)c4ccccc4)CC3)CC2)CC1 (stereo not shown) [Compound 18]"
  pIC50: 6.16
- MOLECULE: "CC1CN(C(=O)C2CC2C(=O)N2CCN(C(c3ccccc3)c3ccccc3)CC2)CC(C)N1 (stereo not shown) [Compound 13]"
  pIC50: 6.15
- MOLECULE: "CNC1CCN(C(=O)C2CC2C(=O)N2CCN(C(c3ccccc3)c3ccccc3)CC2)CC1 (stereo not shown) [Compound 16]"
  pIC50: 4.90
- MOLECULE: "O=C(Nc1ccccc1)C1CC1C(=O)N1CCN(C(c2ccccc2)c2ccccc2)CC1 (stereo not shown) [Compound 6]"
  pIC50: 5.49
- MOLECULE: "O=C(C1CC1C(=O)N1CCN(C(c2ccccc2)c2ccccc2)CC1)N1CCN(c2ccccc2F)CC1 (stereo not shown) [Compound 8]"
  pIC50: 6.03

Param item = COCCN1CCN(C(=O)C2CC2C(=O)N2CCN(C(c3ccccc3)c3ccccc3)CC2)CC1 (stereo not shown) [Compound 7] ; retrieve measured pIC50.
5.70

Param item = CC(NC(=O)C1CC1C(=O)N1CCN(C(c2ccccc2)c2ccccc2)CC1)c1ccccc1 (stereo not shown) [Compound 10] ; retrieve measured pIC50.
5.81

Param item = CC(C)(C)N1CCN(C(=O)C2CC2C(=O)N2CCN(C(c3ccccc3)c3ccccc3)CC2)CC1 (stereo not shown) [Compound 15] ; retrieve measured pIC50.
5.07

Param item = CC1CCC(NC(=O)C2CC2C(=O)N2CCN(C(c3ccccc3)c3ccccc3)CC2)CC1 (stereo not shown) [Compound 12] ; retrieve measured pIC50.
6.74
